Reported IC50 values for a set of molecules
- system under test: Cell-based CT-L (proteasome chymotrypsin-like activity) (Homo sapiens, UniProt P28074)
- Construct: endogenous in cells
- Sequence (P28074 60-263): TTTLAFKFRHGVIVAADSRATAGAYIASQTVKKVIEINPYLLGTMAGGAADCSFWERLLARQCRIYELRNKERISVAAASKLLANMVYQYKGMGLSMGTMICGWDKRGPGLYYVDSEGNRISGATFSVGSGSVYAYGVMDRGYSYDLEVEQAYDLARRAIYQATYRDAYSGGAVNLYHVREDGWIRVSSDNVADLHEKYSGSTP
- test name: Cell-based proteasome CT-L activity inhibition

>  <smiles entry>
CC(=O)N[C@@H](CCc1ccccc1)C(=O)N[C@@H](CC(C)C)C(=O)N[C@@H](CO)C(=O)N[C@@H](CC(C)C)C(=O)[C@@]1(C)CO1

>  <IC50>
< 500 nM

$$$$
>  <smiles entry>
CC(C)C[C@H](NC(=O)c1ccccc1)C(=O)N[C@@H](Cc1ccccc1)C(=O)N[C@@H](CC(C)C)C(=O)[C@@]1(C)CO1

>  <IC50>
< 50 nM

$$$$
>  <smiles entry>
COc1ccc(NC(=O)N[C@@H](CC(C)C)C(=O)N[C@@H](Cc2ccccc2)C(=O)N[C@@H](CC(C)C)C(=O)[C@@]2(C)CO2)cc1

>  <IC50>
< 50 nM

$$$$
>  <smiles entry>
CC(C)C[C@H](NC(=O)CN1CCOCC1)C(=O)N[C@@H](Cc1ccccc1)C(=O)N[C@@H](CC(C)C)C(=O)[C@@]1(C)CO1

>  <IC50>
< 50 nM

$$$$
>  <smiles entry>
Cc1ccc(CCC(=O)N[C@@H](CC(C)C)C(=O)N[C@@H](Cc2ccccc2)C(=O)N[C@@H](CC(C)C)C(=O)[C@@]2(C)CO2)cc1

>  <IC50>
< 50 nM

$$$$
>  <smiles entry>
CC(C)C[C@H](NS(=O)(=O)c1ccsc1)C(=O)N[C@@H](Cc1ccccc1)C(=O)N[C@@H](CC(C)C)C(=O)[C@@]1(C)CO1

>  <IC50>
< 50 nM

$$$$
>  <smiles entry>
CC(C)C[C@H](NC(=O)[C@H](CCc1ccccc1)NC(=O)CN1CCOCC1)C(=O)N[C@@H](Cc1ccc(F)cc1)C(=O)N[C@@H](CC(C)C)C(=O)[C@@]1(C)CO1

>  <IC50>
< 50 nM

$$$$
>  <smiles entry>
COc1ccc(NC(=S)N[C@@H](CC(C)C)C(=O)N[C@@H](Cc2ccccc2)C(=O)N[C@@H](CC(C)C)C(=O)[C@@]2(C)CO2)cc1

>  <IC50>
< 50 nM

$$$$
>  <smiles entry>
CC(C)C[C@H](NC(=O)C1CCN(S(=O)(=O)c2cccs2)CC1)C(=O)N[C@@H](Cc1ccccc1)C(=O)N[C@@H](CC(C)C)C(=O)[C@@]1(C)CO1

>  <IC50>
< 500 nM

$$$$

###

- system under test: 20S proteasome chymotrypsin-like activity (CT-L) (Homo sapiens)
pIC50: −log10 of the molar value.
property: pIC50

>  <smiles entry>
CC(=O)N[C@@H](CCc1ccccc1)C(=O)N[C@@H](CC(C)C)C(=O)N[C@@H](CO)C(=O)N[C@@H](CC(C)C)C(=O)[C@@]1(C)CO1

>  <observed measurement>
> 7.30

$$$$
>  <smiles entry>
CC(C)C[C@H](NS(=O)(=O)c1ccsc1)C(=O)N[C@@H](Cc1ccccc1)C(=O)N[C@@H](CC(C)C)C(=O)[C@@]1(C)CO1

>  <observed measurement>
> 7.30

$$$$
>  <smiles entry>
CC(C)C[C@H](NC(=O)[C@H](CCc1ccccc1)NC(=O)CN1CCOCC1)C(=O)N[C@@H](Cc1ccc(F)cc1)C(=O)N[C@@H](CC(C)C)C(=O)[C@@]1(C)CO1

>  <observed measurement>
> 7.30

$$$$
